Molecular target: KATP channels (Homo sapiens, UniProt O60706+Q14654)
Construct: TE671 human medulloblastoma cells were obtained from ATCC
Sequence (Q14654 whole entry): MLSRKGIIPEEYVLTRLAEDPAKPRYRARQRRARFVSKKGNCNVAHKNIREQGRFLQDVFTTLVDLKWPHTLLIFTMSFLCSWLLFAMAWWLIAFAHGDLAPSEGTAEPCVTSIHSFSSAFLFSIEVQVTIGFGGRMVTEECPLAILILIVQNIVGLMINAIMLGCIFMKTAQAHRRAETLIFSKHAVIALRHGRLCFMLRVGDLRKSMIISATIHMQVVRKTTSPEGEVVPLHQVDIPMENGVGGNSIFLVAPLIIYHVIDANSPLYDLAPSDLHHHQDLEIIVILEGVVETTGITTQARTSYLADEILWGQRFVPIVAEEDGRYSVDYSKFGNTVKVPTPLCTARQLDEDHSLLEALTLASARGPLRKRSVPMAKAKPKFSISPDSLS
Sequence (O60706 1-1549 isoform O60706-2): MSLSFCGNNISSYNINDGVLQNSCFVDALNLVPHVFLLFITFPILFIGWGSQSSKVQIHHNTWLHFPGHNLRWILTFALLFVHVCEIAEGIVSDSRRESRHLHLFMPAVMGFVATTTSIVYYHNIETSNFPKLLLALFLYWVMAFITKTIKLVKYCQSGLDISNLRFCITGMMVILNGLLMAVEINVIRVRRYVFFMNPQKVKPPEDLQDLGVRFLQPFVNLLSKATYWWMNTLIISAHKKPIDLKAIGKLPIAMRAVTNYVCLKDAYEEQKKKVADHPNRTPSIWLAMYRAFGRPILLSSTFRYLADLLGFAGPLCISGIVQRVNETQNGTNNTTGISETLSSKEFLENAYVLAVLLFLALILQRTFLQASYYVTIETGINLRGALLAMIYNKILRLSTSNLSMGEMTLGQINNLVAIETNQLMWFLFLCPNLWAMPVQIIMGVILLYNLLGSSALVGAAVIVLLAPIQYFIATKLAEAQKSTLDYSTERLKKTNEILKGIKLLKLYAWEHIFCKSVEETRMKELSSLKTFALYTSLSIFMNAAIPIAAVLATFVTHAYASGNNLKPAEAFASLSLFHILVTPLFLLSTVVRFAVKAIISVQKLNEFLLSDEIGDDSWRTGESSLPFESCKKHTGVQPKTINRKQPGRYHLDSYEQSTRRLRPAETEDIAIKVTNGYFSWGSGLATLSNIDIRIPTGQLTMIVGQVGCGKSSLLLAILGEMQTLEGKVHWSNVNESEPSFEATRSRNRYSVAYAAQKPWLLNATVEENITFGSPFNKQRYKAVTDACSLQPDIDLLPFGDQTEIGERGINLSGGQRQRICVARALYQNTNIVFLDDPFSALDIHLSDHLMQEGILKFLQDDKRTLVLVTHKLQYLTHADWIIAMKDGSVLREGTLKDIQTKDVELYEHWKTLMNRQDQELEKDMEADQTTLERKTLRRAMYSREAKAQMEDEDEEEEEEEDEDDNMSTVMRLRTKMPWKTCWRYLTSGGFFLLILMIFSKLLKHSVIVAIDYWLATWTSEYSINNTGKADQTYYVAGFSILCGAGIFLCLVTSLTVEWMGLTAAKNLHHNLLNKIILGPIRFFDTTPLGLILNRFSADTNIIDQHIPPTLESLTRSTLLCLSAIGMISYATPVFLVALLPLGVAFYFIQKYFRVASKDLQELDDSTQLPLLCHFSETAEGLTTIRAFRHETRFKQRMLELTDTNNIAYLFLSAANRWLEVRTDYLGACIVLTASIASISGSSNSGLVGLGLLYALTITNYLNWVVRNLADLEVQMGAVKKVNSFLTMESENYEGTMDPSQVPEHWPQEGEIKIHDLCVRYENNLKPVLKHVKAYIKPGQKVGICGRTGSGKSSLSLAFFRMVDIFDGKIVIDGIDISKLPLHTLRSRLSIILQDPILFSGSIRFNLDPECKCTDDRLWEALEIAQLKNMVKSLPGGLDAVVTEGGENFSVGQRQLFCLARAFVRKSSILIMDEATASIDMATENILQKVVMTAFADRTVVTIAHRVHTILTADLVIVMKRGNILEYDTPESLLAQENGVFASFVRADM
Test: Potassium Channel Assay (FLIPR membrane potential dye, TE671 cells)
Conditions: TE671 human medulloblastoma cells, room temperature, fluorescence change monitored for 3 minutes
Rule: measured EC50 below 10 µM gets 1; anything equal to or greater than 10 µM gets -1.

> print(dat)
                                    molecule                           target.of.assay  category
 1  N#Cc1cccc(-c2ccncc2C(O)c2ccc(Cl)c(Cl)c2)c1 (stereo not shown)  KATP channels (Homo sapiens, UniProt O60706+Q14654)        -1
 2  Cc1ccc(C(O)c2cnccc2-c2cccc(C#N)c2)cc1 (stereo not shown)  KATP channels (Homo sapiens, UniProt O60706+Q14654)         1
 3  N#Cc1cccc(-c2ccncc2C(O)c2ccc(F)c(F)c2)c1 (stereo not shown)  KATP channels (Homo sapiens, UniProt O60706+Q14654)        -1
 4  CSc1ccc(C(O)c2cnccc2-c2cccc(C#N)c2)cc1 (stereo not shown)  KATP channels (Homo sapiens, UniProt O60706+Q14654)        -1
 5  O=C(c1ccccc1)c1ccncc1C(O)c1ccccc1 (stereo not shown)  KATP channels (Homo sapiens, UniProt O60706+Q14654)        -1
 6  CCOC(=O)c1cnc2cc(C(F)(F)F)ccc2c1-c1ccc(-c2ccccc2)cc1  KATP channels (Homo sapiens, UniProt O60706+Q14654)        -1
 7  Cc1cc(C)c(C(O)c2cnccc2-c2cccc(C#N)c2)c(C)c1 (stereo not shown)  KATP channels (Homo sapiens, UniProt O60706+Q14654)        -1
 8  CCOC(=O)c1cnc2cc(C(F)(F)F)ccc2c1-c1ccc(C)c(C)c1  KATP channels (Homo sapiens, UniProt O60706+Q14654)        -1
 9  COc1ccc(C(O)c2cnccc2-c2cccc(C#N)c2)cc1F (stereo not shown)  KATP channels (Homo sapiens, UniProt O60706+Q14654)         1
10  N#Cc1cccc(C(=O)c2ccncc2C(O)c2ccccc2)c1 (stereo not shown)  KATP channels (Homo sapiens, UniProt O60706+Q14654)        -1
11  Cc1ccc(F)cc1C(O)c1cnccc1-c1cccc(C#N)c1 (stereo not shown)  KATP channels (Homo sapiens, UniProt O60706+Q14654)        -1
12  COc1ccc(OC)c(C(O)c2cnccc2C(=O)c2ccccc2)c1 (stereo not shown)  KATP channels (Homo sapiens, UniProt O60706+Q14654)        -1

----------
# % Stimulation per record follows
Molecular target: KATP channels (Homo sapiens, UniProt O60706+Q14654)
Construct: TE671 human medulloblastoma cells were obtained from ATCC; host or cells: TE671 human medulloblastoma cells
Assay: Potassium Channel Assay (FLIPR membrane potential dye, TE671 cells)
Format: cell-based
Settings: TE671 human medulloblastoma cells, room temperature, fluorescence change monitored for 3 minutes
Experimental: TE671 human medulloblastoma cells were obtained from ATCC and grown in Dulbecco's modified Eagle's medium (DMEM) supplemented with 10% fetal bovine serum, 100 U/ml penicillin and 100 U/ml streptomycine. […] The effect of test compounds on KATP channels were evaluated on a fluorometric imaging plate reader (FLIPR, Molecular Devices) at room temperature. […] Hyperpolarization resulting from KATP channel opening was observed as a decrease in fluorescence intensity. […]
parameter: % Stimulation (%)

> print(dat)
                                    compound                           target.of.assay      parameter  unit.annotation  endpoint.value
 1  CCOC(=O)c1cnc2cc(C(F)(F)F)ccc2c1-c1cc(C)cc(OC)c1  KATP channels (Homo sapiens, UniProt O60706+Q14654)  % Stimulation                %              23
 2  CCOC(=O)c1cnc2cc(C(F)(F)F)ccc2c1-c1ccc(-c2ccccc2)cc1  KATP channels (Homo sapiens, UniProt O60706+Q14654)  % Stimulation                %              33
 3  CCOC(=O)c1cnc2cc(C(F)(F)F)ccc2c1-c1cc(C(F)(F)F)ccc1F  KATP channels (Homo sapiens, UniProt O60706+Q14654)  % Stimulation                %              31
 4  CCOC(=O)c1ccc(-c2c(C(=O)OCC)cnc3cc(C(F)(F)F)ccc23)cc1  KATP channels (Homo sapiens, UniProt O60706+Q14654)  % Stimulation                %              38
 5  CCOC(=O)c1cnc2cc(C(F)(F)F)ccc2c1-c1cccc(C(C)=O)c1  KATP channels (Homo sapiens, UniProt O60706+Q14654)  % Stimulation                %               2
 6  Cc1cc(C)c(C(O)c2cnccc2-c2cccc(C#N)c2)c(C)c1 (stereo not drawn)  KATP channels (Homo sapiens, UniProt O60706+Q14654)  % Stimulation                %              37
 7  CCOC(=O)c1cnc2cc(C(F)(F)F)ccc2c1-c1cc(C(F)(F)F)cc(C(F)(F)F)c1  KATP channels (Homo sapiens, UniProt O60706+Q14654)  % Stimulation                %              19
 8  CCOC(=O)c1cnc2cc(C(F)(F)F)ccc2c1-c1ccccc1  KATP channels (Homo sapiens, UniProt O60706+Q14654)  % Stimulation                %              42
 9  COc1ccc(C(O)c2cnccc2-c2cccc(C#N)c2)cc1 (stereo not drawn)  KATP channels (Homo sapiens, UniProt O60706+Q14654)  % Stimulation                %               7
10  CCOC(=O)c1cnc2cc(C(F)(F)F)ccc2c1-c1ccc(C)c(C)c1  KATP channels (Homo sapiens, UniProt O60706+Q14654)  % Stimulation                %               0
11  N#Cc1cccc(C2OC(O)c3cnccc32)c1 (stereo not drawn)  KATP channels (Homo sapiens, UniProt O60706+Q14654)  % Stimulation                %              24
12  CCOC(=O)c1cnc2cc(C(F)(F)F)ccc2c1-c1cccc(C(F)(F)F)c1  KATP channels (Homo sapiens, UniProt O60706+Q14654)  % Stimulation                %              22
13                 N#Cc1cccc(-c2ccncc2C=O)c1  KATP channels (Homo sapiens, UniProt O60706+Q14654)  % Stimulation                %              48
14  CCOC(=O)c1cnc2cc(C(F)(F)F)ccc2c1-c1cccc(C=O)c1  KATP channels (Homo sapiens, UniProt O60706+Q14654)  % Stimulation                %               2
15  COc1ccc(F)cc1C(O)c1cnccc1-c1cccc(C#N)c1 (stereo not drawn)  KATP channels (Homo sapiens, UniProt O60706+Q14654)  % Stimulation                %              24
16  CCOC(=O)c1cnc2cc(C(F)(F)F)ccc2c1-c1cccc(C#N)c1  KATP channels (Homo sapiens, UniProt O60706+Q14654)  % Stimulation                %              36
17  CCOC(=O)c1cnc2cc(C(F)(F)F)ccc2c1-c1cccc(CO)c1  KATP channels (Homo sapiens, UniProt O60706+Q14654)  % Stimulation                %              20
18                 COc1ccc(CO)cc1-c1ccncc1CO  KATP channels (Homo sapiens, UniProt O60706+Q14654)  % Stimulation                %              14
19               COc1ccc(C=O)cc1-c1ccncc1C=O  KATP channels (Homo sapiens, UniProt O60706+Q14654)  % Stimulation                %              30
20  OCc1cnccc1C(O)c1ccccc1 (stereo not drawn)  KATP channels (Homo sapiens, UniProt O60706+Q14654)  % Stimulation                %              33
21  OC1OC(c2ccccc2)c2ccncc21 (stereo not drawn)  KATP channels (Homo sapiens, UniProt O60706+Q14654)  % Stimulation                %              34
22  Cc1ccc(F)cc1C(O)c1cnccc1-c1cccc(C#N)c1 (stereo not drawn)  KATP channels (Homo sapiens, UniProt O60706+Q14654)  % Stimulation                %              63
23  N#Cc1cccc(C(O)c2ccncc2CO)c1 (stereo not drawn)  KATP channels (Homo sapiens, UniProt O60706+Q14654)  % Stimulation                %              16
24                  N#Cc1cccc(-c2ccncc2CO)c1  KATP channels (Homo sapiens, UniProt O60706+Q14654)  % Stimulation                %              19
